Origin of measurements: the supplement of paper PMC10567573

Assignment: determine reported protein stability index for the given variants.
B1: TMEM175 (parent)
chain: QTSAFARQPRDELERVRVSCTIIF

variants of: B1; assay: protein stability index of a GFP-peptide fusion (GPS, HEK-293T) (PSI 1-6); higher = more stable; conditions: c terminus: a fixed tail appended;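 note: lentivirally expressed fusions sorted by FACS into six bins by GFP to DsRed ratio, PSI derived from sequencing read proportions per bin multiplied by bin number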
Form rule: numeric answer, no unit written next to it.

Identify measured protein stability index associated with QTSAFARQHRDELERVRVSCTIIF [P9H] 2.88

Identify measured protein stability index associated with QTSAFARQPRDELERVRCSCTIIF [V18C] 1.82

Identify measured protein stability index associated with QTSAFARQPRDELECVRVSCTIIF [R15C] 1.88

Identify measured protein stability index associated with QTSARARQPRDELERVRVSCTIIF [F5R] 1.38

Identify measured protein stability index associated with QTSAFARQPRDELERVRVSFTIIF [C20F] 2.07

Identify measured protein stability index associated with QTSAFARQPRDELERVRVSCTIDF [I23D] 2.81

Identify measured protein stability index associated with QTSAFARQPRDELERVIVSCTIIF [R17I] 2.2

Identify measured protein stability index associated with QTSAFARQERDELERVRVSCTIIF [P9E] 3.41

Identify measured protein stability index associated with QTSAFARQPRDELEYVRVSCTIIF [R15Y] 3.62

Identify measured protein stability index associated with QTHAFARQPRDELERVRVSCTIIF [S3H] 1.69

Identify measured protein stability index associated with QTKAFARQPRDELERVRVSCTIIF [S3K] 2.62

Identify measured protein stability index associated with QTFAFARQPRDELERVRVSCTIIF [S3F] 2.04

Identify measured protein stability index associated with QTSAFARQPRDELERVRVGCTIIF [S19G] 2.74

Identify measured protein stability index associated with QTSAFARQPRDELERVRVSCTIVF [I23V] 3.26

Identify measured protein stability index associated with QTSAFARQPRDELERVRVSKTIIF [C20K] 1.95

Identify measured protein stability index associated with QTSAFARQPRDELERVRVSCTICF [I23C] 1.67

Identify measured protein stability index associated with QTGAFARQPRDELERVRVSCTIIF [S3G] 1.91

Identify measured protein stability index associated with QTSAFARQPSDELERVRVSCTIIF [R10S] 2.4

Identify measured protein stability index associated with QTQAFARQPRDELERVRVSCTIIF [S3Q] 2.21

Identify measured protein stability index associated with QTSAFARQPRDELERVQVSCTIIF [R17Q] 3.06

Identify measured protein stability index associated with QTSAFARQPRDELERVMVSCTIIF [R17M] 2.91

Identify measured protein stability index associated with QTSAFARQPRDELERVRVSCTLIF [I22L] 2.49

Identify measured protein stability index associated with QTSAFARLPRDELERVRVSCTIIF [Q8L] 1.87

Identify measured protein stability index associated with QTSAFARQPRDELERHRVSCTIIF [V16H] 2.65

Identify measured protein stability index associated with QTSAFARQPRDELERVRVLCTIIF [S19L] 1.78

Identify measured protein stability index associated with QTSAQARQPRDELERVRVSCTIIF [F5Q] 2.27

Identify measured protein stability index associated with QTSAFARQPRGELERVRVSCTIIF [D11G] 3.67

Identify measured protein stability index associated with QTSAFARQPRDELERWRVSCTIIF [V16W] 2.56

Identify measured protein stability index associated with QTSAFARQPRDELEIVRVSCTIIF [R15I] 3.42

Identify measured protein stability index associated with QTSAFARQPRDELERVRVSCTIIN [F24N] 2.48

Identify measured protein stability index associated with QTSAFARQPRDELERVRVSITIIF [C20I] 2.61

Identify measured protein stability index associated with QTSAFARQPRDELERVRKSCTIIF [V18K] 2.41

Identify measured protein stability index associated with QTSAFARQPRDELERVRVSCTIIR [F24R] 2.37

Identify measured protein stability index associated with QTSAVARQPRDELERVRVSCTIIF [F5V] 2.15

Identify measured protein stability index associated with QTSAFARQPRDELERVRVSCTIIY [F24Y] 2.08

Identify measured protein stability index associated with QTSAFARQPRDELERVRVSCTIEF [I23E] 1.57

Identify measured protein stability index associated with QTSAFARRPRDELERVRVSCTIIF [Q8R] 3.17

Identify measured protein stability index associated with QTSAFARQPRDELERVRVSCGIIF [T21G] 2.91

Identify measured protein stability index associated with QTSAFARQPADELERVRVSCTIIF [R10A] 2.28

Identify measured protein stability index associated with QTSAFARQPRDELERVRVSCTWIF [I22W] 2.02
